Catalogue of kon readings, one per entry.
STUDY SYSTEM: T1, INCENP N-terminal domain (1-58), His- and Avi-tagged, biotinylated (UniProt Q9NQS7 1-58, biotinylated (Avi-tag, co-expressed E. coli biotin ligase BirA))
T1 construct: range 1-58; Expressed in E. coli BL21(DE3); also called INC-N; INCENP N-terminal domain (AA 1-58); not shown: His-tag and Avi-tag
T1 sequence (looked up): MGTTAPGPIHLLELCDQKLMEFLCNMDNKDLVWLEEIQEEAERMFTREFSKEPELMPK
PROTOCOL: SPR, target immobilised on NTA chip via His-tag, two-fold Fab dilutions from 100 nM, 1:1 Langmuir fit
MEASURED QUANTITY: kon (M⁻¹ s⁻¹)

1. INC-N-13 (Fab, V domains shown, also called INC-N-13 Fab) VH: EVQLVESGGGLVQPGGSLRLSCAASGFNVSYYSIHWVRQAPGKGLEWVASIYPYSGSTYYADSVKGRFTISADTSKNTAYLQMNSLRAEDTAVYYCARYPYYVYWYYWWYYALDYWGQGTLVTVSS VL: DIQMTQSPSSLSASVGDRVTITCRASQSVSSAVAWYQQKPGKAPKLLIYSASSLYSGVPSRFSGSRSGTDFTLTISSLQPEDFATYYCQQSWSYPITFGQGTKVEIKR
140000
2. INC-N-11 (Fab, V domains shown, also called INC-N-11 Fab) VH: EVQLVESGGGLVQPGGSLRLSCAASGFNVSYYSIHWVRQAPGKGLEWVASIYPSSGSTYYADSVKGRFTISADTSKNTAYLQMNSLRAEDTAVYYCARMYPSWMLYPYYMFAGMDYWGQGTLVTVSS VL: DIQMTQSPSSLSASVGDRVTITCRASQSVSSAVAWYQQKPGKAPKLLIYSASSLYSGVPSRFSGSRSGTDFTLTISSLQPEDFATYYCQQRWVYPITFGQGTKVEIKR
740000
3. INC-N-06 (Fab, V domains shown, also called INC-N-06 Fab) VH: EVQLVESGGGLVQPGGSLRLSCAASGFNISYSSIHWVRQAPGKGLEWVASIYPYSGSTYYADSVKGRFTISADTSKNTAYLQMNSLRAEDTAVYYCARWSLYGKWYYWWYGLDYWGQGTLVTVSS VL: DIQMTQSPSSLSASVGDRVTITCRASQSVSSAVAWYQQKPGKAPKLLIYSASSLYSGVPSRFSGSRSGTDFTLTISSLQPEDFATYYCQQGSYYPITFGQGTKVEIKR
770000
4. INC-N-38 (Fab, V domains shown, also called INC-N-38 Fab) VH: EVQLVESGGGLVQPGGSLRLSCAASGFNVYSSSIHWVRQAPGKGLEWVAYISSYSGYTYYADSVKGRFTISADTSKNTAYLQMNSLRAEDTAVYYCARTIYSSSYFYTWFIYGAAFDYWGQGTLVTVSS VL: DIQMTQSPSSLSASVGDRVTITCRASQSVSSAVAWYQQKPGKAPKLLIYSASSLYSGVPSRFSGSRSGTDFTLTISSLQPEDFATYYCQQSWMYPITFGQGTKVEIKR
420000
